Attribution: ChEMBL document CHEMBL3352239

Assay name: Binding affinity to rat brain alpha4beta2* nAChR
pKi: −log10 of the molar value.
Observation type: pKi

INSERT INTO measurements (smiles_structure, endpoint_result) VALUES
  ('c1cncc(OC[C@@H]2CCN2)c1', 10.70);

* * *

Target under test: Acetylcholine receptor subunit alpha (Homo sapiens, UniProt P02708)
Sequence (P02708 whole entry): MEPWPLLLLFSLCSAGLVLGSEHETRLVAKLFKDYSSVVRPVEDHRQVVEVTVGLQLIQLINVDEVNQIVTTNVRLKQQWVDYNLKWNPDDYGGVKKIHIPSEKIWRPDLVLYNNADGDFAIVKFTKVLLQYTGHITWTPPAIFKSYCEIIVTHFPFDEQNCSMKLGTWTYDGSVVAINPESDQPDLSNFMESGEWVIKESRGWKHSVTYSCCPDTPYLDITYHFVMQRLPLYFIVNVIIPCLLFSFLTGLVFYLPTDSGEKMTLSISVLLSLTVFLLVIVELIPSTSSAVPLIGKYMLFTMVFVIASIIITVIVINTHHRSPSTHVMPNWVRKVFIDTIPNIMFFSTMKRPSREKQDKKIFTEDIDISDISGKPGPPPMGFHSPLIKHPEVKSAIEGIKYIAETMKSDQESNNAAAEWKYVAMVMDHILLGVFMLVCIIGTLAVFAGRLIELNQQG
Assay name: Partial agonist activity at alpha1 nAChR (unknown origin)
Observation type: Ki (nM)

INSERT INTO assay_data (smiles_structure, endpoint_result) VALUES
  ('Clc1cncc(N2CCCNCC2)c1', 944);

* * *

Listed next: entries and their corresponding Ki.
Target under test: Neuronal acetylcholine receptor; alpha4/beta2 (Homo sapiens, UniProt P17787+P43681)
Sequence (P17787 whole entry): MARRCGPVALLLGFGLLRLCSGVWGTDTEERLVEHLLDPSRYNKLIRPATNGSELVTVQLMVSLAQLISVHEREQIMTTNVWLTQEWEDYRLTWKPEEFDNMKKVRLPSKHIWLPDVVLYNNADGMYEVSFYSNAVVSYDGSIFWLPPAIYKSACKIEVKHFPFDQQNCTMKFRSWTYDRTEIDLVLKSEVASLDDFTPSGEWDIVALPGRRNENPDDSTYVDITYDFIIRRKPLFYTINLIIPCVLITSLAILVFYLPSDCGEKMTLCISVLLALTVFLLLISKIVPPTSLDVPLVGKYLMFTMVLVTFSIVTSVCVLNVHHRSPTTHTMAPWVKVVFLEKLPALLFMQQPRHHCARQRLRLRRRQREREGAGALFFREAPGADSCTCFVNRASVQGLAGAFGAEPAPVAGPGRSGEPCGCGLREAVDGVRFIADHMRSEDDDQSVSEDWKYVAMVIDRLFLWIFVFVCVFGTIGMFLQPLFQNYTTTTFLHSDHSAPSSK
Sequence (P43681 whole entry): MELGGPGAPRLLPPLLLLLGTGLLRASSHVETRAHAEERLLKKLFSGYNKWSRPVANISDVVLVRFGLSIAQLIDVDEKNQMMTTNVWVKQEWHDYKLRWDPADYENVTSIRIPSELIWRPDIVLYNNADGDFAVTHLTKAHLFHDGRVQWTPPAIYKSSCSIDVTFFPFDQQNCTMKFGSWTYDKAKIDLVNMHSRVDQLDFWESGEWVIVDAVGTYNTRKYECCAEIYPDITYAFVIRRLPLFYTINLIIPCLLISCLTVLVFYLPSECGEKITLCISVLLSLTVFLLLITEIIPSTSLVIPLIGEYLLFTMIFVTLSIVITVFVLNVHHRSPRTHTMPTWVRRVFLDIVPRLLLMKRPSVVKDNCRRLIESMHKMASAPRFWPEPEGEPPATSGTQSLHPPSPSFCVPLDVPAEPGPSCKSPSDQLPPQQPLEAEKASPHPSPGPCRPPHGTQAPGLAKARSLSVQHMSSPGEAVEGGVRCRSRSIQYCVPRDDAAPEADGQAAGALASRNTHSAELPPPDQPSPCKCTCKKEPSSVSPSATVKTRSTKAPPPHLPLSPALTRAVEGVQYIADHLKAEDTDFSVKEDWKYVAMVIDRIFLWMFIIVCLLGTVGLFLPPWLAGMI
Assay name: Partial agonist activity at alpha4beta2 nAChR (unknown origin)
Observation type: Ki (nM)

INSERT INTO measurements (compound, endpoint_result) VALUES
  ('O=c1cccc2n1C[C@@H]1CNC[C@H]2C1 [CYTISINICLINE]', 2),
  ('Clc1cncc(N2CCCNCC2)c1', 0.36);

* * *

Assay name: Binding affinity to alpha3beta4* nAChR (unknown origin)
Parameters: species or system Homo sapiens
Observation type: Ki (nM)

INSERT INTO measurements (smiles_structure, endpoint_result) VALUES
  ('O=c1ccc(Br)c2n1C[C@H]1CNC[C@@H]2C1', 3.8),
  ('O=c1c(-c2ccccn2)ccc2n1C[C@@H]1CNC[C@@H]2C1', 119);

* * *

Target under test: Neuronal acetylcholine receptor; alpha3/beta4 (Homo sapiens, UniProt P30926+P32297)
Sequence (P30926 whole entry): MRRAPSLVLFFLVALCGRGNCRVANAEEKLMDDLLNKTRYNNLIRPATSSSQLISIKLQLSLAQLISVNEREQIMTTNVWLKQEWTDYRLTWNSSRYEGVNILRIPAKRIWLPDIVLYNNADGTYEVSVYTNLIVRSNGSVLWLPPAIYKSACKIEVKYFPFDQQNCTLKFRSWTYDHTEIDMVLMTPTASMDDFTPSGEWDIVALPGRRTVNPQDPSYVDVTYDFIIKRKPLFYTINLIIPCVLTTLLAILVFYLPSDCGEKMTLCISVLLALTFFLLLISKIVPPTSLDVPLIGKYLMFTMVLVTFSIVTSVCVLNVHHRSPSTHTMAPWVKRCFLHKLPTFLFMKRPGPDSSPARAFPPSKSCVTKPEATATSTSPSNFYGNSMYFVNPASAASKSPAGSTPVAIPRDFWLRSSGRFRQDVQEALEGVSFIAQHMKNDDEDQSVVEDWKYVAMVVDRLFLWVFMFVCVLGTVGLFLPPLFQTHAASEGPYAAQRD
Sequence (P32297 whole entry): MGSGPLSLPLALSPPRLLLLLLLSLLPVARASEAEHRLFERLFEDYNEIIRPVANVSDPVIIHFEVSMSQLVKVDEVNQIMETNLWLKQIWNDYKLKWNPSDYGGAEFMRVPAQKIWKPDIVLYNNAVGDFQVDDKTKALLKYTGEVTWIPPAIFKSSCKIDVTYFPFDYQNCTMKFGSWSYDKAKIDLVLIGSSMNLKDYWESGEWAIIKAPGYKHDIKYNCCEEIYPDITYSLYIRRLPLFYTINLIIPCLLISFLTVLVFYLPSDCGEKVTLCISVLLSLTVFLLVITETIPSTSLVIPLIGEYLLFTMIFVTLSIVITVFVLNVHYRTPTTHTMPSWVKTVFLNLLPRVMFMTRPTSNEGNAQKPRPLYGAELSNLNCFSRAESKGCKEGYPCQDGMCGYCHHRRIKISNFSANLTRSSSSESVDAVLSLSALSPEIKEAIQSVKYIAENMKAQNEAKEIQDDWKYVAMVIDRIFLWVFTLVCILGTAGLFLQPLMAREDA
Assay name: Partial agonist activity at alpha3beta4 nAChR (unknown origin)
Format: protein-complex assay
Observation type: Ki (nM)

INSERT INTO measurements (smiles_structure, target_under_test, endpoint_result) VALUES
  ('O=c1cccc2n1C[C@@H]1CNC[C@H]2C1', 'Neuronal acetylcholine receptor; alpha3/beta4 (Homo sapiens, UniProt P30926+P32297)', 480);

* * *

Assay name: Agonist activity at human alpha3beta4* nAChR
pEC50: −log10 of the molar value.
Observation type: pEC50

INSERT INTO assay_data (smiles_structure, observation_type, endpoint_result) VALUES
  ('c1cncc(OC[C@@H]2CCN2)c1', 'pEC50', 6.10);

* * *

Target under test: Neuronal acetylcholine receptor; alpha4/beta2 (Rattus norvegicus, UniProt P09483+P12390)
Sequence (P09483 whole entry): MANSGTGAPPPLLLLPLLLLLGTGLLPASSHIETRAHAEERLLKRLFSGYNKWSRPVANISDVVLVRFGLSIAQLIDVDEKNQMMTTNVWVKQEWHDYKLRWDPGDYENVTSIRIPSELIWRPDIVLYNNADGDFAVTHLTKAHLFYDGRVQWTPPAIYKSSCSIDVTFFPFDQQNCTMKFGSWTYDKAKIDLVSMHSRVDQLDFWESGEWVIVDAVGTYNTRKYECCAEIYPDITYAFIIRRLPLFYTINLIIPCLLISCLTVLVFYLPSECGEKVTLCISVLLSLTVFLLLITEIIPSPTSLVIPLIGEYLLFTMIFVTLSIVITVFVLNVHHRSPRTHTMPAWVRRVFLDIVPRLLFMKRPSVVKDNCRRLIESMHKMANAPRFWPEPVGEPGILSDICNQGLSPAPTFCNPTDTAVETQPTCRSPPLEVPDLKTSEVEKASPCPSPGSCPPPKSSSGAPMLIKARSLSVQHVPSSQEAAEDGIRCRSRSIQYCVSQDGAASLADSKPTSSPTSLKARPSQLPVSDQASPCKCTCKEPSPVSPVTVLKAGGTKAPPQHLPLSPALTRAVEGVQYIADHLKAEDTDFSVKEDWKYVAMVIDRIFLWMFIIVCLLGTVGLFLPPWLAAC
Sequence (P12390 whole entry): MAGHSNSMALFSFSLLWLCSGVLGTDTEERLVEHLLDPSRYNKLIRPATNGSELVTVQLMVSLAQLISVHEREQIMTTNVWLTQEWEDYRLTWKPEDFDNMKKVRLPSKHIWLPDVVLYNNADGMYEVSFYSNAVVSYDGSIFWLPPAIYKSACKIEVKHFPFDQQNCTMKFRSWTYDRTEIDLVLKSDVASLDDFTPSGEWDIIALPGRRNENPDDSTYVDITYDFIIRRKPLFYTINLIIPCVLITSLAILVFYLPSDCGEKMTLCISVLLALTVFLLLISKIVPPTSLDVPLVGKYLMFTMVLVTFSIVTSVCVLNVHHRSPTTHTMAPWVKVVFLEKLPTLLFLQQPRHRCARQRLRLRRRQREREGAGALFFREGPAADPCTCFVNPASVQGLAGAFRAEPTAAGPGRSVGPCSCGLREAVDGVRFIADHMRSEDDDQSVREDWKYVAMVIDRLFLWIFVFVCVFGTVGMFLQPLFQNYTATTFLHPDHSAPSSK
Assay name: Partial agonist activity at rat alpha4beta2 nAChR
Listed next: entries and their corresponding Ki.
Observation type: Ki (nM)

INSERT INTO assay_data (molecule, units_text, endpoint_result) VALUES
  ('FC(F)(F)c1ccc2c(c1)[C@@H]1CNC[C@H]2C1', 'nM', 21),
  ('FC(F)(F)c1ccc2c(c1)[C@H]1CNC[C@@H]2C1 [CP-601927]', 'nM', 1.2);

* * *

Target under test: Neuronal acetylcholine receptor; alpha3/beta4 (Homo sapiens, UniProt P30926+P32297)
Assay name: Agonist activity at alpha3beta4 nAChR (unknown origin)
Type: protein-complex assay
Observation type: Ki

INSERT INTO measurements (molecule, endpoint_result) VALUES
  ('O=C(N[C@H]1CN2CCC1CC2)c1ccc(Cl)cc1 [PNU-282987]', '≥ 60 µM');

* * *

Assay name: Binding affinity to alpha4beta2* nAChR (unknown origin)
Parameters: species or system Homo sapiens
Observation type: Ki (nM)

INSERT INTO measurements (smiles_structure, endpoint_result) VALUES
  ('O=c1c(-c2ccccn2)ccc2n1C[C@@H]1CNC[C@@H]2C1', 0.91),
  ('O=c1ccc(Br)c2n1C[C@H]1CNC[C@@H]2C1', 0.3),
  ('Ic1cncc(OC[C@@H]2CCN2)c1', 0.01),
  ('CN[C@@H](C)C/C=C/c1cncc(OC(C)C)c1', 11);
